All values here come from patent US12570612B2.

- Tested on: H295R cell line
- Protocol notes: Adrenocortical function in vitro test: secretion of cortisol and corticosterone, Group A compounds
- Type: cell-based
- Settings: Homo sapiens; H295 cells, 0.1-10000 nM, HPLC-MS/MS; read-out: EC50 (Corticosterone)
I'd be grateful if you could share measured EC50 for these entries.

Consider the worked cases shown below.
CC#CC1(OC(=O)c2ccnn2[C@H](C)c2ccccc2)COC1 [Compound A10]; > 1000 nM
COC(=O)C1=C(OC(=O)c2c(C(F)(F)F)cnn2[C@H](C)c2ccccc2)CCCC1 [Compound A101]; > 100 nM
C=C=CC1(OC(=O)c2c(F)c(F)nn2[C@H](C)c2ccccc2)COC1 [Compound A92]; > 1000 nM

Quick one: give me EC50 for each item below, same order please.
1. CC#CCOC(=O)c1ccnn1[C@H](C)c1ccccc1 [Compound A23]
2. COC(=O)C1=C(OC(=O)c2cc(F)nn2[C@H](C)c2ccccc2)CCCC1 [Compound A54]

Reply:
["> 100 nM", "> 100 nM"]

The following compounds each have a reported value; give each one's EC50.
1. C=CC1(OC(=O)c2ccnn2[C@H](C)c2ccccc2)COC1 [Compound A34]
2. CCOC(=O)c1c(F)cnn1[C@H](C)c1ccccc1 [Compound A70]
3. C=CC1(OC(=O)c2cc(F)nn2[C@H](C)c2ccccc2)COC1 [Compound A65]
4. C=CC#CC(C)OC(=O)c1ccnn1[C@H](C)c1ccccc1 (stereo partly shown) [Compound A15]
5. CC#CC(C)(C)OC(=O)c1ccnn1[C@H](C)c1ccccc1 [Compound A12]

Reply:
> 1000 nM
> 100 nM
> 100 nM
> 100 nM
> 100 nM
